Test system: Fibrinogen (Alexa647-labelled)
Experiment: Alexa647-fibrinogen binding to printed small molecules – biochemical, small-molecule microarray, 635/667 nm fluorescence, artefact control for SMM control-protein annotation, profiling panel (AID 1131);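 also: z-score merges 667 nm fluorescence with per-spot signal-to-noise over triplicate slides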
Settings: fibrinogen-A647 binding fluorescence, higher = more signal
observable: composite z-score

Example molecules with recorded composite z-score:
molecule	composite z-score
NC(=O)N1C(=O)C2C(C1=O)C1C=C(CCCO)C2C(c2ccc(CN3CCCC3)cc2)N1Cc1cc2c(cc1Br)OCO2 (centres undefined)	-0.713
C#CCN1[C@@H](Cc2ccccc2)C(=O)O[C@H](Cc2ccccc2)[C@@H]1/C=C/C1CC1	-0.287
COC(=O)C(CC#Cc1ccc2c(c1)[C@]1(C(=O)N2)[C@H](C(=O)N2CCc3cc(OC)c(OC)cc3C2)[C@H]2C(=O)O[C@H](c3ccccc3)[C@H](c3ccccc3)N2[C@@H]1c1ccccc1OCCO)C(=O)OC	0.613
COc1ccc(C(=O)Nc2cccc(CN3C(=O)[C@]4(O[C@H](CC(=O)N5Cc6ccccc6C[C@H]5CO)[C@@H]([Si](C)(C)c5ccc(OC)cc5)[C@@H]4C)c4ccccc43)c2)cc1	0.368
O=C(NCc1ccccc1)[C@@H]1c2ccccc2C(=O)N(Cc2cc(C(F)(F)F)cc(C(F)(F)F)c2)[C@H]1c1ccc(CO)cc1	0.638

List composite z-score for every entry below, keeping the order given.
1. CC(C)N1C(=O)c2ccccc2[C@@H](C(=O)NCC(F)(F)F)[C@@H]1c1ccc(CO)cc1
2. C=CCC(OC(C)=O)[C@@H]1[C@@H](N(Cc2cc3ccccc3o2)C(=O)c2cccc3ccccc23)c2cc(OCCCO)ccc2N1C(=O)c1ccc2ccccc2n1 (some centres undefined)
3. COC(=O)[C@H](Cc1ccc(O)cc1)N[C@@H](/C=C/C1CC1)[C@H](O)Cc1ccccc1
4. O=C1OCCC=C[C@H]2OC34C=CCN(c5ccc6ccccc6c5)C(=O)[C@H]3N(CCO)C(=O)[C@@H]4C12 (some centres undefined)
5. CN1C(=O)C2C(C3CC3)C=C3CN(Cc4cccc(Cl)c4)[C@@H]([C@@H](O)Cc4ccccc4)C3C2C1=O (some centres undefined)
6. COC(=O)[C@@]1(Cc2ccccc2)[C@H]2c3cc(C(=O)N(C)C)n(Cc4ccc(C(F)(F)F)nc4)c3C[C@H]2CN1C(=O)c1ccccc1

[-0.537, -0.137, -0.785, -0.318, 0.862, 1.01]

Give composite z-score for all molecules that follow.
1. CC(C)C[C@@H]1NC(=O)[C@@H]2C[C@H](C(=O)NCCCCCCNC(=O)CS)[C@H](c3cccc(OCCO)c3)N2C1=O
2. COc1cc(C(O)C2C=CC3C(=O)N(c4ccccc4)C(=O)C3N2Nc2ccccc2)cc(OC)c1OC (centres undefined)
3. O=C1C2C=CC(C(O)c3c(F)cccc3Cl)N(Nc3ccc([N+](=O)[O-])cc3)C2C(=O)N1c1ccccc1 (centres undefined)

1: 0.892; 2: 1; 3: 0.931

----------
Test: plasmodial surface anion channel blockers, osmotic lysis – cell-based, P. falciparum Indochina, OD700, 2 h, primary screen (AID 1155);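 also: lysis reports solute entry through the parasite surface anion channel PSAC; channel blockers reduce lysis of infected cells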
Conditions: P. falciparum Indochina infected erythrocytes, higher = more signal, called active from +8 up or from −8 down
Decide using z-score: a value greater than or equal to 0.6 is met, a smaller one is not met.

Please review the following examples before continuing.
compound	qualitative label
CN1C(=O)C2C(C3CC3)C=C3CN(Cc4cccc(Cl)c4)[C@@H]([C@@H](O)Cc4ccccc4)C3C2C1=O (some centres not stated)	met
COc1ccc(C(=O)Nc2ccc3c(c2)[C@@]2(O[C@H](CCO)[C@@H]([Si](C)(C)c4ccc(OC)cc4)[C@@H]2C)C(=O)N3Cc2ccccc2)cc1	met
C[N+](C)(C)CCCC[C@@H]1NC(=O)[C@H]2C[C@@H](C(=O)NCCCCCNC(=O)CS)[C@@H](c3cccc(OCCO)c3)N2C1=O	not met
CC1CC/C=C\[C@H]2OC34C=CCN(C(C)(C)C)C(=O)[C@H]3N(CCCO)C(=O)[C@@H]4C2C(=O)O1 (some centres not stated)	not met
COCCCNC(=O)[C@@H]1c2ccccc2C(=O)N(Cc2ccc(OC(F)(F)F)cc2)[C@H]1c1ccc(CO)cc1	not met

In plain terms: is recorded z-score at least 0.6 for CO[C@H]1O[C@H](CO)[C@@H](OC(=O)Nc2ccccc2)[C@H](OC(=O)Nc2ccccc2)[C@H]1OC(=O)Nc1ccccc1 ?
met

How about this compound: C=CCC(OC(C)=O)[C@@H]1[C@@H](N(Cc2ccc(-c3ccccc3)cc2)C(=O)c2cccc3ccccc23)c2cc(OCCCO)ccc2N1C(=O)Cc1ccc(OC)cc1 (some centres not stated)
not met

----------
Experiment: JC-1 mitochondrial potential readout, lung cancer cells – cell-based, A549, JC-1 fluorescence, basal, 24 h, 100 nL, profiling panel (AID 1138);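 also: A549 lung adenocarcinoma cells under basal conditions with no added stimulus; test concentration not given here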
Conditions: higher = more signal
// label = 1 if z-score is not less than 0.07, otherwise -1

Worked set:
compound	qualitative label
O=C1O[C@@H](c2ccccc2)[C@@H](c2ccccc2)N2[C@@H](c3ccccc3OCCO)[C@]3(C(=O)Nc4ccc(C#CCCO)cc43)[C@@H](C(=O)NC[C@H](O)c3ccccc3)[C@H]12	-1
CC[C@@H]1C=C(C(=O)O)[C@H](c2ccc(OC)cc2)N1S(=O)(=O)c1ccc(C)cc1	1
COC(=O)C(CC#Cc1ccc2c(c1)[C@]1(C(=O)N2)[C@H](C(=O)NC[C@H](O)c2ccccc2)[C@H]2C(=O)O[C@H](c3ccccc3)[C@H](c3ccccc3)N2[C@@H]1c1ccccc1OCCO)C(=O)OC	-1
CCOC(=O)C[C@H]1[C@H](OC(=O)Cc2ccc3c(c2)OCO3)[C@@H](NC(=O)c2ccc3ccccc3n2)c2cc(OCCCO)ccc2N1C(=O)Cc1ccc(OC)cc1	1
C=CCC(OC(C)=O)[C@@H]1[C@@H](N(Cc2cccc3ccccc23)C(=O)Cc2ccc(OC)cc2)c2cc(OCCCO)ccc2N1C(=O)c1ccc2ccccc2c1 (stereo not given in full)	-1

Tell me whether z-score is at least 0.07 here: COc1ccc(NN2C(C(O)c3ccc(I)cc3)C=CC3C(=O)N(C4CCCCC4)C(=O)C32)cc1 (stereo not given)
1

Next record, please: CN(C)CCCCNC(=O)[C@H]1C[C@H]2C(=O)NCC(=O)N2[C@H]1c1ccc(O)cc1
-1

What do you get for COC(=O)C[C@H]1O[C@@]2(C[C@@H]1[Si](C)(C)C)C(=O)N(C)c1ccccc12 ?
1

Entry CC(C)(C)OC(=O)CC[C@@]1(C(=O)NCCN2CCOCC2)N=C(c2ccc(OCCCO)cc2)O[C@@H]1c1ccccc1CN=[N+]=[N-] please
-1

Also check COC(=O)C1(Cc2ccccc2)C=C2C(=C(C)C(=O)C2C)CN1 (stereo not given)
1

----------
Experiment: JC-1 mitochondrial signal, unstimulated myeloma cells – cell-based, JC-1 fluorescence, RPMI8226, 24 h, 100 nL compound, profiling panel (AID 1169); also: test concentration not given here
Conditions: JC-1 mitochondrial potential fluorescence, higher = more signal
observable: z-score

Give measured z-score for every item shown.
1. CN1C(=O)C2C(C1=O)C1C=C(c3ccc(CO)cc3)C2C(C2CC2)N1C (centres undefined)
2. O=C(NC1CC1)[C@@H]1c2ccccc2C(=O)N(CC23CC4CC(CC(C4)C2)C3)[C@H]1c1ccc(CO)cc1
3. CCCC[C@H]1C[C@@H]1[C@@H]1N(C(C)=O)[C@H](c2cccc(OC)c2)CC12CC2
4. COC(=O)[C@@]1(Cc2ccc(F)cc2)[C@H]2c3cc(C(=O)N4CCCC4)n(Cc4ccccn4)c3C[C@H]2CN1C(=O)c1ccccc1

[0.178, 0.555, -0.172, -0.116]

----------
Assay: growth of efflux-deficient E. coli DRC39 – strain DRC39, OD650, 24 h, E. coli filamentation inducers, primary screen (AID 1178);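 also: growth measured as culture turbidity by optical density at 650 nm; test concentration not given here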
Conditions: E. coli DRC39 acrAB, higher = more signal, called active from +8 up or from −8 down
Field: z-score. Provide a value for each of the molecules that follow.
Give bare numbers.

Examples with answers:
molecule	z-score
COC(=O)[C@@]1(Cc2ccccc2)[C@H]2c3cc(C(=O)N(C)C)n(CCSC(=N)N)c3C[C@H]2CN1C(=O)c1ccccc1	-0.456
COCCCNC(=O)[C@@H]1c2ccccc2C(=O)N(Cc2ccc(OC(F)(F)F)cc2)[C@H]1c1ccc(CO)cc1	0.454
O=C1C[C@@](C(=O)NC2CC2)(c2ccc([N+](=O)[O-])cc2)[C@@H](c2ccc(CO)cc2)N1C1CCCCC1	0.0991
N#Cc1ccc(-c2cccc(=O)o2)cc1	-1.1
C=C(C)[C@@H]1CC=C(C(O)C2C=CC3C(=O)N(c4ccccc4)C(=O)C3N2Nc2ccc([N+](=O)[O-])cc2)CC1 (some centres not stated)	-1.17
C=CCC(OC(C)=O)[C@@H]1[C@@H](N(Cc2cc3ccccc3o2)C(=O)Cc2ccc(OC)cc2)c2cc(OCCCO)ccc2N1C(=O)c1ccc2ccccc2n1 (some centres not stated)	0.945
CN(C)CCCNC(=O)[C@@]1(C)c2ccccc2C(=O)N(Cc2ccc(OC(F)(F)F)cc2)[C@H]1c1ccc(CO)cc1	0.967
CC(C)(C)OC(=O)CC[C@@]1(C(=O)NCCN2CCOCC2)N=C(c2ccc(OCCCO)cc2)O[C@@H]1c1ccccc1CN=[N+]=[N-]	-0.407
O=C(NCCN1CCOCC1)[C@@H]1c2ccccc2C(=O)N(Cc2ccc(OC(F)(F)F)cc2)[C@H]1c1ccc(CO)cc1	0.248
COC(=O)[C@@]1(Cc2ccc(OC)cc2)[C@H]2c3cc(C(=O)N4CCCC4)n(Cc4ccc(C(F)(F)F)nc4)c3C[C@H]2CN1C(=O)c1ccccc1	-0.886

Please give z-score for each item listed below.
1. CCOC(=O)C1=CC[C@@H](c2ccc(OC)cc2)N(S(=O)(=O)c2ccc(C)cc2)[C@H]1CC
2. CCOC(=O)C[C@H]1[C@H](OC(=O)c2ccccc2-c2ccccc2)[C@@H](NC(=O)C2CCCCC2)c2cc(OCCCO)ccc2N1C(=O)c1ccc2ccccc2n1

1. 0.608
2. -0.53

Provide each entry's z-score from the list below.
1. O=C1O[C@@H](c2ccccc2)[C@@H](c2ccccc2)N2[C@@H](c3ccccc3OCCO)[C@]3(C(=O)Nc4ccc(C#CCCO)cc43)[C@@H](C(=O)NC[C@H](O)c3ccccc3)[C@H]12
2. C=CC[C@@]1(C(=O)N(C)C)N=C(c2ccc(OCCCO)cc2)O[C@@H]1c1ccccc1CN=[N+]=[N-]
3. C=C(COC)C(=O)CC[C@@H](OC(=O)c1ccccc1-c1ccccc1C(=O)O)c1ccc(OCCO)cc1
4. COC(=O)C1(Cc2ccccc2)C=C2C(=C(C)C(=O)C2C)CN1 (configuration not stated)
5. COc1ccc([Si](C)(C)[C@H]2[C@H](CC(=O)N3Cc4ccccc4C[C@H]3CO)O[C@@]3(C(=O)N(C)c4c(Br)cc(C)cc43)[C@@H]2C)cc1

1: 0.797; 2: 0.159; 3: -0.699; 4: 0.858; 5: -0.652
